Molecular target: Isoform 2 of Nuclear receptor ROR-alpha (Alpha-2) (Homo sapiens)
Experiment: activators of RORA nuclear receptor, dose response, cell-based, CHO-K1, Gal4-RORA LBD, luciferase luminescence (AID 681)
pEC50: −log10 of the molar value.
observable: pEC50

>  <compound>
COc1ccccc1-c1nc(-c2ccncc2)no1

>  <observed-measurement>
5.46

$$$$

a = O=C(Nc1ccc2nc(-c3ccc(Br)o3)[nH]c2c1)c1cccs1 [SMR000046012]
b = CC(=O)C(C)Oc1ccc2c3c(c(=O)oc2c1C)CCCC3 (stereo unspecified)
Recorded pEC50 values differ for a and b ; which one is higher? // caller expects the label of the chosen entry
b

----------
Molecular target: Isoform 2 of Nuclear receptor ROR-alpha (Alpha-2) (Homo sapiens)
Assay: activators of RORA nuclear receptor, dose response, cell-based, CHO-K1, Gal4-RORA LBD, luciferase luminescence (AID 681)
observable: EC50 (nM)

>  <molecule>
COc1cc(C)c(C(C)C)cc1S(=O)(=O)n1cnc(C)c1

>  <target-or-test-system>
Isoform 2 of Nuclear receptor ROR-alpha (Alpha-2) (Homo sapiens)

>  <EC50 / nM>
1850

$$$$

P = O=C(NC1CCCC1)c1cc(-c2cccs2)on1 [MLS000087238]
Q = O=C(c1ccc(-c2nnc(-c3ccccc3)o2)cc1)N1CCCCCC1
Hey, between P and Q which has a smaller measured EC50? // caller expects the label of the chosen entry
Q
(Q: 282 nM, P: 1030 nM)

----------
Biological target: Isoform 2 of Nuclear receptor ROR-alpha (Alpha-2) (Homo sapiens, UniProt P35398)
Sequence (P35398 whole entry): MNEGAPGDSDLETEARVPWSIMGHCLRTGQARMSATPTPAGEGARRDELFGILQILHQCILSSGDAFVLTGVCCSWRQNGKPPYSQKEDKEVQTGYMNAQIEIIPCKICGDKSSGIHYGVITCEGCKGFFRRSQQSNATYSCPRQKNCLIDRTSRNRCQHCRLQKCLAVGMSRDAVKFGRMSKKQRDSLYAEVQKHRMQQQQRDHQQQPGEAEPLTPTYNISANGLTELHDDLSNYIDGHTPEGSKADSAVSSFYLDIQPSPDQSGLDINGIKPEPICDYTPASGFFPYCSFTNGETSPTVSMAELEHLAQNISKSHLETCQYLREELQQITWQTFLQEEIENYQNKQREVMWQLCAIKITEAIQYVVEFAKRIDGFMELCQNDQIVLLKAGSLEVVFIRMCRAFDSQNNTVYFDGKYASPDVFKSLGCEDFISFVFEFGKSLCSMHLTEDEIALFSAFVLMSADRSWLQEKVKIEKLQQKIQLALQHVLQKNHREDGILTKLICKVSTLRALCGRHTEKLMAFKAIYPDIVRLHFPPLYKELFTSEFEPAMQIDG
Assay: activators of RORA nuclear receptor, dose response, cell-based, CHO-K1, Gal4-RORA LBD, luciferase luminescence (AID 681)
Item-by-item account of EC50
Numeric only. Scale: nM

Would you mind telling me what EC50 value was observed for `CCN(CC)C(=O)Oc1ccc2c(=O)c(-c3ccccc3)coc2c1` ?
1240

Would you mind telling me what EC50 value was observed for `Cn1c(SCc2ccccc2F)nc2cccnc21` ?
1980

----------
Molecular target: Isoform 2 of Nuclear receptor ROR-alpha (Alpha-2) (Homo sapiens, UniProt P35398)
Sequence (P35398 whole entry): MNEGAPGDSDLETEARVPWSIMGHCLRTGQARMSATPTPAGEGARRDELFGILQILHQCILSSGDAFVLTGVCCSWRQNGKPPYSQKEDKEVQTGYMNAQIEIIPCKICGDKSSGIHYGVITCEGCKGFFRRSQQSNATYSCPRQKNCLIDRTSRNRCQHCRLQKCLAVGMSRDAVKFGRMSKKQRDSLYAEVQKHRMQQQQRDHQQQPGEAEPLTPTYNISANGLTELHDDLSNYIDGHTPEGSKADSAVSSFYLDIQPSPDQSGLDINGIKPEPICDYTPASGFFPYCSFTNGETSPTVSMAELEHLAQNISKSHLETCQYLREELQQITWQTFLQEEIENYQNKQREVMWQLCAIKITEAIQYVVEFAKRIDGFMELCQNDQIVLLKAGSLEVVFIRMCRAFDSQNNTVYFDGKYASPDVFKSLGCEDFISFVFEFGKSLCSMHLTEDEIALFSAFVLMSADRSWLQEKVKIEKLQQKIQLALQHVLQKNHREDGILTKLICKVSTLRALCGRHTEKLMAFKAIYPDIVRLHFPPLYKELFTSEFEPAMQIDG
Experiment: activators of RORA nuclear receptor, dose response, cell-based, CHO-K1, Gal4-RORA LBD, luciferase luminescence (AID 681)
Conditions: inactive by the depositor's call
pEC50: −log10 of the molar value.
observable: pEC50

>  <structure>
O=C(NCc1cccs1)c1noc2c1CCCC2

>  <pEC50>
5.00

$$$$
>  <structure>
O=C(CSc1nc[nH]n1)Nc1nnc(-c2ccccc2)s1

>  <pEC50>
4.92

$$$$
>  <structure>
O=c1c2ccccc2nc2ccc(NCc3ccco3)nn12

>  <pEC50>
4.97

$$$$
